All values here come from patent US20250304644A1.

biological target: human SNAP-tagged GLP-1R (human, UniProt P43220 24-463, SNAP tag labeled with Tag-Lite SNAP-Lumi4-Tb); assay: cell-based or functional assay
*1 amine or outer side, *2 acyl side, *3 side chain or, on linkers, in order; H or OH if unused. Where no end group is shown, it is not given here. Side-chain parts run from the residue outwards. [ ]: non-standard residue; d: D form. The star is where a group is joined. C18 diacid = O=C(O)CCCCCCCCCCCCCCCCC(=O)*; γGlu = O=C(O)[C@H](CCC(=O)[*:2])N[*:1]; AEEA = NCCOCCOCC(=O)O; Aib = CC(C)(N)C(=O)O
Known Absolute hGLP-1R internalization (AUC) of a selection of binders
measured-quantity: Absolute hGLP-1R internalization (AUC)

>>> test_result("H[Aib]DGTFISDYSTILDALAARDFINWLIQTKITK([AEEA-AEEA-γGlu-C18 diacid])-OH [Compound 28]")
0.96
>>> test_result("HADGTFTSDYSIILDK([AEEA-AEEA-γGlu-C18 diacid])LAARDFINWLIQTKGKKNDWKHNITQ-OH [Compound 20]")
91.8
>>> test_result("HADGTFTSDYST[Aib]LDK([AEEA-AEEA-γGlu-C18 diacid])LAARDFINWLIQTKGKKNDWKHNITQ-OH [Compound 22]")
78.8
>>> test_result("HADGTFTSDYSTILDK([AEEA-AEEA-γGlu-C18 diacid])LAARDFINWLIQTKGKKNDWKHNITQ-OH [Compound 21]")
94.7
